- System: Glioblastoma cell line U87 cells
- protocol description: MTT cell viability assay, glioblastoma cells
- Assay type: cell-based
- conditions used: U87 glioblastoma cells, MTT after three days
observable: IC50 (µM)

compound: COc1c(Cl)ncnc1N1CCCC(CO)(CCCc2ccccc2)C1 (centres unmarked)
assay value: 2.3

compound: COC(=O)C1(CCCc2ccccc2)CCCN(c2ccnc(N)n2)C1 (centres unmarked)
assay value: 6

* * *

Below, each entry is listed alongside its reported IC50.
- Tested on: Glioblastoma cell line U87 cells
- protocol description: MTT cell viability assay, glioblastoma cells
- Format: cell-based
- conditions used: Homo sapiens, U-87 MG, 72 h, U87 glioblastoma cells, MTT after three days
observable: IC50 (µM)

compound: CCc1ncnc(N2CCCC(CO)(CCCc3ccccc3)C2)c1F (stereo not shown)
observable: IC50
display unit: µM
value prefix: =
assay value: 1.5

compound: COC(=O)C1CCCN(C(=O)OC(C)(C)C)C1 (stereo not shown)
observable: IC50
display unit: µM
value prefix: >
assay value: 80

compound: Nc1nccc(N2CCCC(CO)(CCc3ccccc3)C2)n1 (stereo not shown)
observable: IC50
display unit: µM
value prefix: =
assay value: 3.83

compound: CCc1ncnc(N2CCC(CO)(CCCc3ccccc3)CC2)c1F
observable: IC50
display unit: µM
value prefix: =
assay value: 3.6

compound: Nc1ccnc(N2CCC(CO)(CCCc3ccccc3)CC2)n1
observable: IC50
display unit: µM
value prefix: =
assay value: 13.6

compound: Nc1nccc(N2CCc3ccccc3C2)n1
observable: IC50
display unit: µM
value prefix: >
assay value: 80

compound: Cc1ncnc(N2CCCC(CO)(CCCc3ccccc3)C2)c1C (stereo not shown)
observable: IC50
display unit: µM
value prefix: <
assay value: 2.5
